Test system: PPARg:RXRa DBDmut IVT, anti-RXR (DBD mutation: RXRa K156A/R161A, NR concentration 270 nM, RXRa partner concentration 90 nM)
Assay: PBM binding z-score (relative to random genomic background probes); higher = stronger binding; sequences stand for … in GC…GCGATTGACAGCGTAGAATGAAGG
Readings of PBM binding z-score for the listed sequences

{"sequence code": "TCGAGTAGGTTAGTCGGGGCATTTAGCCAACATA", "PBM binding z-score": 2.28}
{"sequence code": "CCGACTGGGGCATAAGGTGACCATAAGCCAGCCC", "PBM binding z-score": 2.39}
{"sequence code": "AGAATGAGGTTATCAAAGATCAGGGAAACGCTTG", "PBM binding z-score": 2.98}
{"sequence code": "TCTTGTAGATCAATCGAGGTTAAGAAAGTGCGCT", "PBM binding z-score": 1.91}
{"sequence code": "CGAACTAGGTCATCCAGGATAGTGAATACATTGA", "PBM binding z-score": 7.97}
{"sequence code": "TCTGCTAGGTCAACGATGGTCGGCTAATCTGCTA", "PBM binding z-score": 4.31}
{"sequence code": "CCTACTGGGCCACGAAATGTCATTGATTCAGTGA", "PBM binding z-score": 6.24}
{"sequence code": "CGTCCAAGGTCATAGGAGGTAAGTGAAGACAGAT", "PBM binding z-score": 2.54}
{"sequence code": "CCTTACGGGTCACGAGGTTCTAGCACGACGAGCG", "PBM binding z-score": 4.32}
{"sequence code": "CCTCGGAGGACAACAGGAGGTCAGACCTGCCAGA", "PBM binding z-score": 0.294}
{"sequence code": "TCTAGCAGGCCAGAGGGGCACTCAAGAGGTACGG", "PBM binding z-score": 0.959}
{"sequence code": "CATACAGGGTCAGCTAGGCCAGAGCAGGGACGGC", "PBM binding z-score": 0.983}
{"sequence code": "GCAGACTGGTGAAACGCAGGTAACTCAGGGTGGC", "PBM binding z-score": -0.965}
{"sequence code": "ATCGAAAGGACGTGAGGTGAGTATACAGAAAGGC", "PBM binding z-score": -0.822}
{"sequence code": "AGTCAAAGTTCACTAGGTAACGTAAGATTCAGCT", "PBM binding z-score": 2.87}
{"sequence code": "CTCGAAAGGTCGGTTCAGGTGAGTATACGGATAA", "PBM binding z-score": 0.179}
{"sequence code": "ATTTCTAGGTAAGACTCAGTTCAGTGAAGAACGC", "PBM binding z-score": 4.54}
{"sequence code": "ATATCTAGGTTAAGGGTCATTCAGGTTGGTTCGC", "PBM binding z-score": 7.59}
{"sequence code": "TCTCAGAGGACACGAAAGGTCAGAGCTCGACATC", "PBM binding z-score": 1.77}
{"sequence code": "CCTATTAGTTGACCATAAGGGCAACCGGAGCTCG", "PBM binding z-score": 0.164}
{"sequence code": "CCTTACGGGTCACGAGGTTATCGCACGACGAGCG", "PBM binding z-score": 4.34}
{"sequence code": "ACAGACAGGTGATGAAGGTAACTCAGGCTATCAT", "PBM binding z-score": 0.422}
{"sequence code": "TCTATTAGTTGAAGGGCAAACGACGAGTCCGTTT", "PBM binding z-score": 2.81}
{"sequence code": "ACTTACGGGTCAACGAGTTTATAGCACGCGTATA", "PBM binding z-score": 3.67}
{"sequence code": "GCAGACAGGTGAAAAGCAGGTAACTCAGGGTGGC", "PBM binding z-score": 0.172}
{"sequence code": "TCTGCTAGGTCAACCATGGTCAGCTAATCTGCTA", "PBM binding z-score": 4.75}
{"sequence code": "CAAACTAGGTCACAGAGTTCAAAGTCCGTGCGTA", "PBM binding z-score": 8.6}
{"sequence code": "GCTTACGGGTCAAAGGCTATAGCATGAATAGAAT", "PBM binding z-score": 3.78}
{"sequence code": "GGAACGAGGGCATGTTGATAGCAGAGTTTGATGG", "PBM binding z-score": 2.6}
{"sequence code": "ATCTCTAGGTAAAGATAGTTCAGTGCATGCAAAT", "PBM binding z-score": 2.3}
{"sequence code": "TCATATAGGTAAACAGGTGAACGTCCGTAAGTTA", "PBM binding z-score": 5.34}
{"sequence code": "CAAACTAGGGCAAGAGGTCAAAGTCCGCTTCCCG", "PBM binding z-score": 6.91}
{"sequence code": "CCTACTTGGCCATCAGGTCATTGATATCAACGTT", "PBM binding z-score": 1.33}
{"sequence code": "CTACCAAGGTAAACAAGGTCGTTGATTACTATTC", "PBM binding z-score": 1.19}
{"sequence code": "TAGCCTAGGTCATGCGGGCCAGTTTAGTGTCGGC", "PBM binding z-score": 2.01}
{"sequence code": "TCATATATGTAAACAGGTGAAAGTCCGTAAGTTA", "PBM binding z-score": 2.85}
{"sequence code": "AGTGAAAGTTCACTAGGTAACGTAAGATTCAGCT", "PBM binding z-score": 2.6}
{"sequence code": "GTACCAAGGTGAATCGGTCGTTGATGAGTAGGCG", "PBM binding z-score": 1.93}
{"sequence code": "AGTCCAAGTTCATCTAGGTAACGTAAGATATGCT", "PBM binding z-score": 0.673}
{"sequence code": "TCTTGTACATCAACAGGAGGTTAAGAAAGATCGA", "PBM binding z-score": 1.52}
{"sequence code": "ATCTCTAGGTAACTAGTTCAGTGAAAGAGAGGAC", "PBM binding z-score": 2.81}
{"sequence code": "TCATATAGGTAATACTGGTGAAAGTCGGCATCTA", "PBM binding z-score": 3.8}
{"sequence code": "ATCTTTAGGTAAAGATAGTTCAGTGAATGCAAAT", "PBM binding z-score": 0.996}
{"sequence code": "ATCTCCAGGTAACCAAGTTCAGTGAATGCCGAAC", "PBM binding z-score": 0.934}
{"sequence code": "TCTTGTAGATCAATGGAGGTTAAGAAAGTGCGCT", "PBM binding z-score": 2.04}
{"sequence code": "CCTAGTTGGTCAGGAGGTCACTCACCGGATATGA", "PBM binding z-score": 1.33}

* * *

Tested on: RARb:RXRa (NR concentration 270 nM, RXRa partner concentration 90 nM)
Test: PBM binding z-score (relative to random genomic background probes); higher = stronger binding; sequences stand for … in GC…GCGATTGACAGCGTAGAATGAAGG
reported endpoint: PBM binding z-score

{"sequence code": "CATACAGGGTCAGCTAGGCCAGAGTCGGGACGGC", "reported endpoint": "PBM binding z-score", "numeric value": 4.13}
{"sequence code": "GCTAGTTGGTCAGTAAAAGGTCACAAACCGGTCG", "reported endpoint": "PBM binding z-score", "numeric value": 3.91}
{"sequence code": "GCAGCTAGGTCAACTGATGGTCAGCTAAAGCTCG", "reported endpoint": "PBM binding z-score", "numeric value": 4.24}
{"sequence code": "ATCTCTTGGTAAAGATAGTTCAGTGAATGCAAAT", "reported endpoint": "PBM binding z-score", "numeric value": 0.724}
{"sequence code": "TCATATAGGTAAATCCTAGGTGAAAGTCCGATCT", "reported endpoint": "PBM binding z-score", "numeric value": 0.592}
{"sequence code": "ACTATTACTTGAGACGAGGGCAACCGATAGGTTG", "reported endpoint": "PBM binding z-score", "numeric value": 1.3}
{"sequence code": "TCTCGGAGGACACGAAAGGTCAGACCTCGACATC", "reported endpoint": "PBM binding z-score", "numeric value": 4.28}
{"sequence code": "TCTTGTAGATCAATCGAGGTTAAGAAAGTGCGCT", "reported endpoint": "PBM binding z-score", "numeric value": 0.661}
{"sequence code": "CAAACTAGGTCAAGACGTCAAAGTCCGCTTCCCG", "reported endpoint": "PBM binding z-score", "numeric value": 3.97}
{"sequence code": "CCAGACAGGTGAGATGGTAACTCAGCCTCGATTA", "reported endpoint": "PBM binding z-score", "numeric value": 0.229}

* * *

System: PPARa:RXRa (NR concentration 270 nM, RXRa partner concentration 90 nM)
Assay: PBM binding z-score (relative to random genomic background probes); higher = stronger binding; sequences stand for … in GC…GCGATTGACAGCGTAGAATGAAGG
reported endpoint: PBM binding z-score

{"sequence code": "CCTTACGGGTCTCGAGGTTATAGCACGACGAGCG", "numeric value": 1.15}
{"sequence code": "GCATATAGGTCATACAAGGTGAAAGTCCGATTGT", "numeric value": 5.75}
{"sequence code": "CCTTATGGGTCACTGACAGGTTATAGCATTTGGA", "numeric value": 4.93}
{"sequence code": "AGGATGAGGTTATACGTAGATCAGGGAAGAAAGT", "numeric value": 2.62}
{"sequence code": "CCTTACGCGTCACTGACAGGTTATAGCATTTGGA", "numeric value": 0.558}
{"sequence code": "ATCTCTAGGTAAAGATAATTCAGTGAATGCAAAT", "numeric value": 0.312}
{"sequence code": "ACTATTAGTTGAGATGAGGGCAACCGATAGGTTG", "numeric value": 0.427}
{"sequence code": "ACAAGTTGGTCAGCTGAGGTCACACACAATTCGG", "numeric value": 3.78}
{"sequence code": "TCGAGAAGGTTACCAATGGGGCATTCAGCTTTCT", "numeric value": 2.11}
{"sequence code": "CGTCCAAGGTCAAAGGTCAGTGGAGAGATGACGG", "numeric value": 7.16}
{"sequence code": "CCTTACGGTTCACGAGGTTATAGCACGACGAGCG", "numeric value": 3.75}
{"sequence code": "TCTTGTAGATCTATAGAGGTTAAGAAAGTGCGCT", "numeric value": 1.81}
{"sequence code": "AGAATGAGGTTATACGTAGATCAGGGACGAAAGT", "numeric value": 3.23}
{"sequence code": "CCGACTGGGGCATAGGGTTACCATAAGCCAGCCC", "numeric value": 2.07}
{"sequence code": "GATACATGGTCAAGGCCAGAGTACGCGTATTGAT", "numeric value": -0.215}
{"sequence code": "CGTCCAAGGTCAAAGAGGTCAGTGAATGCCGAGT", "numeric value": 5.88}
{"sequence code": "TCGTGTAGGTTAGTCGGGGCATTCAGCCAACATA", "numeric value": 1.16}
{"sequence code": "CTCGAAAGGTCGTGCTCAGGTGCGTATACCAAAC", "numeric value": 4.57}
{"sequence code": "TCATATAAGTAAATGCTAGGTGAAAGTCCGATCT", "numeric value": 1.3}
{"sequence code": "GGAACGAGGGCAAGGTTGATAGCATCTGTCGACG", "numeric value": 2.82}
{"sequence code": "AGAATGAAGTTATACGTAGATCAGGGAAGAAAGT", "numeric value": -0.311}
{"sequence code": "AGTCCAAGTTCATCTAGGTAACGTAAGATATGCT", "numeric value": 2.59}
{"sequence code": "TCTATTAGTTGAGGGGCAACCGACGAGTCCGTTT", "numeric value": 1.18}
{"sequence code": "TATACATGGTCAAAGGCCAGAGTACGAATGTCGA", "numeric value": 1.64}
{"sequence code": "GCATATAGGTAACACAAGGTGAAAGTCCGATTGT", "numeric value": 2.19}
{"sequence code": "CCTTCCGGGTCACTCCAGGTTATAGCATCGGAGT", "numeric value": 4.38}
{"sequence code": "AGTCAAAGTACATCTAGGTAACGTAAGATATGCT", "numeric value": 0.359}
{"sequence code": "ATCGAAAGGTCGACGAGGTGAGCATACACCGTTT", "numeric value": 4.14}
{"sequence code": "TAGCATAGGTCATTCAGGGGCCAGTATAGAAAGC", "numeric value": 5.15}
{"sequence code": "TAGCCTAGGTCAGATCGGGCCAGTACACGCTATA", "numeric value": 1.82}
{"sequence code": "ACGAGCAGGCCAAGGGTCACTCAAGATTAGTCCG", "numeric value": 4.15}
{"sequence code": "CCTCGGCGGACAACAGGAGGTCAGAGCTGCCAGA", "numeric value": 1.68}
{"sequence code": "CGTCAAAGTTCAATTAAGGTAACGTAAAGCACGC", "numeric value": 4.58}
{"sequence code": "CCTTACGGGTCACTGACGGGTTATAGCATTTGGA", "numeric value": 4.67}
{"sequence code": "CCTACTGGGCCATTCAGAGGTCGTTGATCATATG", "numeric value": 1.97}
{"sequence code": "TTAGCAAGGTGAGCTGAGGTCGTTGATCCAACTC", "numeric value": 1.72}
{"sequence code": "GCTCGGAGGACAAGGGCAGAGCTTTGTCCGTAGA", "numeric value": -0.451}
{"sequence code": "AGAACGGGGGCAATGAGTTGATAGCACGGGTGGC", "numeric value": 3.66}
{"sequence code": "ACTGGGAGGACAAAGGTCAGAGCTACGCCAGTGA", "numeric value": 5.24}
